These data points were gathered from patent US11091476B2.

assay_system: CDK6/CyclinD3 (Homo sapiens (Human), UniProt Q00534)
Sequence (Q00534 whole entry): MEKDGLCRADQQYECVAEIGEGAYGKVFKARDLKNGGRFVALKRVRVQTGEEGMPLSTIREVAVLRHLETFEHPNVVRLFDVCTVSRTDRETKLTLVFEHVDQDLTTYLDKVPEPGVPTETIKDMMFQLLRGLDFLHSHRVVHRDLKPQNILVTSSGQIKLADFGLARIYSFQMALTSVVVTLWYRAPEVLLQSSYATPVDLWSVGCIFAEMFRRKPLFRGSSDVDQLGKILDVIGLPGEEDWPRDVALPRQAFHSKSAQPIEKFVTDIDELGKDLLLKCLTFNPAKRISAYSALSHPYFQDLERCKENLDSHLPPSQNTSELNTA
Sequence (P30281 whole entry partner): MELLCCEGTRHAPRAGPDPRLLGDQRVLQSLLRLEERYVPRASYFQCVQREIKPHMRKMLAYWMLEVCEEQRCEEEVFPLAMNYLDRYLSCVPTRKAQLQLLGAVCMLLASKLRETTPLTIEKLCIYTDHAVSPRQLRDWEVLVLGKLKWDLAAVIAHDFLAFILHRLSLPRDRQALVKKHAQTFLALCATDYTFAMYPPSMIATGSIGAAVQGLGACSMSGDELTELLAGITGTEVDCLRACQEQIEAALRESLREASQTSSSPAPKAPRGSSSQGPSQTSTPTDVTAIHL
assay_summary: CDK kinase inhibitory activity, ADP-Glo Kinase Assay, CDK6/CyclinD3
Format: biochemical
settings: ratio of IC50s, selectivity for CDK6 over CDK9
experimental_endpoint: CDK9/CDK6
One number for each entry.

Illustrative cases are given below, each with its answer.
Kindly note the recorded CDK9/CDK6 for CCN1CCC(c2ccc(Nc3ncc(F)c(-c4cc(F)c5c(c4)C4(CCCC4)C(C)=N5)n3)nc2)CC1 , which is 18.75

Kindly note the recorded CDK9/CDK6 for CC1=Nc2c(F)cc(-c3nc(Nc4ccc(N5CCN(C)CC5)cn4)ncc3F)cc2C12CCCC2 , which is 0.003

Kindly note the recorded CDK9/CDK6 for CCC1(C)C(C)=Nc2c(F)cc(-c3nc(Nc4ccc(N5CCNCC5)cn4)ncc3F)cc21 (stereo not shown) , which is 1.40

Kindly note the recorded CDK9/CDK6 for CCN1CCN(Cc2ccc(Nc3ncc(F)c(-c4cc(F)c5c(c4)C(CC)(CC)C(C)=N5)n3)nc2)CC1 , which is 0.57

Kindly note the recorded CDK9/CDK6 for CC1=Nc2c(F)cc(-c3nc(Nc4ccc(C5CCN(CCO)CC5)cn4)ncc3F)cc2C12CCCC2 , which is 0.88

Kindly note the recorded CDK9/CDK6 for CC1=Nc2c(F)cc(-c3nc(Nc4ccc(N5CCNCC5)cn4)ncc3F)cc2C12CCCC2 , which is 0.06

New cases:
Kindly note the recorded CDK9/CDK6 for CCN1CCC(c2ccc(Nc3ncc(F)c(-c4cc(F)c5c(c4)C(C)(CC)C(C)=N5)n3)nc2)CC1 (stereo not shown) , which is 0.88

* * *

assay_system: CDK6/CyclinD3 (Homo sapiens (Human))
assay_summary: CDK kinase inhibitory activity, ADP-Glo Kinase Assay, CDK6/CyclinD3
Type: biochemical
settings: ratio of IC50s, selectivity for CDK6 over Pim-1
Criterion: Pim-1/CDK6 meeting or surpassing 6. Met: Satisfied. Not met: Not satisfied.

Answered examples (4):
Q: Decide: Pim-1/CDK6 of CCN1CCC(c2ccc(Nc3ncc(F)c(-c4cc(F)c5c(c4)C4(CCCC4)C(C)=N5)n3)nc2)CC1 >= 6?
A: Not satisfied

Q: Decide: Pim-1/CDK6 of CCN1CCN(Cc2ccc(Nc3ncc(F)c(-c4ccc5c(c4)C4(CCCC4)C(C)=N5)n3)nc2)CC1 >= 6?
A: Satisfied

Q: Decide: Pim-1/CDK6 of CC1=Nc2c(F)cc(-c3nc(Nc4ccc(N5CCNCC5)cn4)ncc3F)cc2C12CCCC2 >= 6?
A: Not satisfied

Q: Decide: Pim-1/CDK6 of CCC1(CC)C(C)=Nc2c(F)cc(-c3nc(Nc4ccc(N5CCN(C)CC5)cn4)ncc3F)cc21 >= 6?
A: Satisfied

Now look at this one.
Q: Decide: Pim-1/CDK6 of CCC1(C)C(C)=Nc2c(F)cc(-c3nc(Nc4ccc(C5CCN(C)CC5)cn4)ncc3F)cc21 (centres unmarked) >= 6?
A: Not satisfied

* * *

assay_system: CDK6/CyclinD3 (Homo sapiens (Human), UniProt Q00534)
assay_summary: CDK kinase inhibitory activity, ADP-Glo Kinase Assay, CDK6/CyclinD3
pIC50: −log10 of the molar value.
Criterion: pIC50 meeting or surpassing 8. Met: class 1. Not met: class 0.

Q: Decide: pIC50 of CCC1(CC)C(C)=Nc2c(F)cc(-c3nc(Nc4ccc(N5CCNCC5)cn4)ncc3F)cc21 >= 8?
A: class 1

Q: Decide: pIC50 of CC1=Nc2c(F)cc(-c3nc(Nc4ccc5c(n4)CCN(C(=O)CO)C5)ncc3F)cc2C12CCCC2 >= 8?
A: class 0

Q: Decide: pIC50 of CC1=Nc2c(F)cc(-c3nc(Nc4ccc(C5CCN(CCO)CC5)cn4)ncc3F)cc2C12CCCC2 >= 8?
A: class 1

Now look at this one.
Q: Decide: pIC50 of CC1=Nc2c(F)cc(-c3nc(Nc4ccc(C5CCN(C)CC5)c(C)n4)ncc3F)cc2C12CCCC2 >= 8?
A: class 0

* * *

assay_summary: Rat pharmacokinetic determination (LC/MS/MS of plasma)
Type: in vivo, SD rats
settings: male, rat, plasma, po; rats, single intragastric administration, 5 mg/kg, Mean ± SD; read-out: Blood concentration Cmax
experimental_endpoint: Cmax (ng/mL)
Answers are plain numbers, in ng/mL.

Kindly note the recorded Cmax for CC1=Nc2c(F)cc(-c3nc(Nc4ccc(C5CCN(C)CC5)cn4)ncc3F)cc2C12CCCC2 , which is 188

* * *

assay_system: CDK6/CyclinD3 (Homo sapiens (Human), UniProt Q00534)
assay_summary: CDK kinase inhibitory activity, ADP-Glo Kinase Assay, CDK6/CyclinD3
Assay type: biochemical
settings: ratio of IC50s, selectivity for CDK6 over CDK1
experimental_endpoint: CDK1/CDK6
Numbers only.

Illustrative cases are given below, each with its answer.
Kindly note the recorded CDK1/CDK6 for CC1=Nc2ccc(-c3nc(Nc4ccc(N5CCNCC5)cn4)ncc3F)cc2C12CCCC2 [Example 14] , which is 57.40

Kindly note the recorded CDK1/CDK6 for CCN1CCN(Cc2ccc(Nc3ncc(F)c(-c4ccc5c(c4)C4(CCCC4)C(C)=N5)n3)nc2)CC1 [Example 9] , which is 13.13

Kindly note the recorded CDK1/CDK6 for CCC1(C)C(C)=Nc2c(F)cc(-c3nc(Nc4ccc(C5CCNCC5)cn4)ncc3F)cc21 (stereo not drawn) [Example 11] , which is 19.58

Kindly note the recorded CDK1/CDK6 for CC1=Nc2c(F)cc(-c3nc(Nc4ccc(CN5CCN(C)CC5)cn4)ncc3F)cc2C12CCCC2 [Example 43] , which is 298.78

Kindly note the recorded CDK1/CDK6 for CCN1CCN(c2ccc(Nc3ncc(F)c(-c4cc(F)c5c(c4)C(C)(CC)C(C)=N5)n3)nc2)CC1 (stereo not drawn) [Example 19] , which is 0.99

New cases:
Kindly note the recorded CDK1/CDK6 for CCN1CCC(c2ccc(Nc3ncc(F)c(-c4ccc5c(c4)C4(CCCC4)C(C)=N5)n3)nc2)CC1 [Example 21] , which is 4.89

* * *

Could you please report measured Vd for the items listed next?
assay_summary: Rat pharmacokinetic determination (LC/MS/MS of plasma)
Type: in vivo, SD rats
settings: male, rat, plasma; rats, single intravenous administration, 2 mg/kg, Mean ± SD; read-out: Apparent volume of distribution VZ
Give bare numbers, in L/kg.

Give Vd for all compounds that follow.
1. CC1=Nc2c(F)cc(-c3nc(Nc4ccc(C5CCN(C)CC5)cn4)ncc3F)cc2C12CCCC2 [Example 17]
2. CCN1CCN(Cc2ccc(Nc3ncc(F)c(-c4cc(F)c5nc(C)n(C(C)C)c5c4)n3)nc2)CC1 [LY2835219, reference compound]

A:
1: 19.4; 2: 6.95

* * *

assay_system: CDK6/CyclinD3 (Homo sapiens (Human))
assay_summary: CDK kinase inhibitory activity, ADP-Glo Kinase Assay, CDK6/CyclinD3
Could you please report measured pIC50 for the items listed next?
Give bare numbers, as −log10 of the molar value.

Kindly note the recorded pIC50 for CC1=Nc2c(F)cc(-c3nc(Nc4ccc(C5CCNCC5)cn4)ncc3F)cc2C12CCCC2 , which is 9.41

Kindly note the recorded pIC50 for CCC1(C)C(C)=Nc2c(F)cc(-c3nc(Nc4ccc(N5CCN(C)CC5)cn4)ncc3F)cc21 (centres unmarked) , which is 8.56

Kindly note the recorded pIC50 for CCC1(C)C(C)=Nc2c(F)cc(-c3nc(Nc4ccc(N5CCNCC5)cn4)ncc3F)cc21 (centres unmarked) , which is 8.49

Kindly note the recorded pIC50 for CCN1CCN(c2ccc(Nc3ncc(F)c(-c4ccc5c(c4)C(C)(CC)C(C)=N5)n3)nc2)CC1 (centres unmarked) , which is 8.42

Kindly note the recorded pIC50 for CCN1CCN(Cc2ccc(Nc3ncc(F)c(-c4cc(F)c5c(c4)C(C)(CC)C(C)=N5)n3)nc2)CC1 (centres unmarked) , which is 8.12

Give pIC50 for all molecules that follow.
1. CCN1CCN(c2ccc(Nc3ncc(F)c(-c4cc(F)c5c(c4)C(C)(CC)C(C)=N5)n3)nc2)CC1 (centres unmarked)
2. CCC1(C)C(C)=Nc2ccc(-c3nc(Nc4ccc(N5CCNCC5)cn4)ncc3F)cc21 (centres unmarked)
3. CCC1(C)C(C)=Nc2ccc(-c3nc(Nc4ccc(N5CCN(C)CC5)cn4)ncc3F)cc21 (centres unmarked)

A:
1. 7.18
2. 7.99
3. 8.29

* * *

assay_system: CDK6/CyclinD3 (Homo sapiens (Human), UniProt Q00534)
assay_summary: CDK kinase inhibitory activity, ADP-Glo Kinase Assay, CDK6/CyclinD3
Type: biochemical
settings: ratio of IC50s, selectivity for CDK6 over CDK1
Protocol: Measurement of CDK kinase inhibitory activity of the compounds of this disclosure. In vitro inhibitory effect of the compounds of the disclosure on CDK (CDK1, CDK4 and CDK6) kinase activity was tested by the following method. 1.1 Instrument and Kit Information […] The inhibition rate of each compound at each concentration point was calculated by the formula as follows and curve fitting was performed by GraphPad Prism 5 software to obtain the IC50 value.
experimental_endpoint: CDK1/CDK6
One number for each entry.

Illustrative cases are given below, each with its answer.
Kindly note the recorded CDK1/CDK6 for CCN1CCN(Cc2ccc(Nc3ncc(F)c(-c4cc(F)c5c(c4)C(C)(CC)C(C)=N5)n3)nc2)CC1 (centres unmarked) , which is 58.23

Kindly note the recorded CDK1/CDK6 for CCN1CCC(c2ccc(Nc3ncc(F)c(-c4cc(F)c5c(c4)C(C)(CC)C(C)=N5)n3)nc2)CC1 (centres unmarked) , which is 17.27

Give CDK1/CDK6 for all compounds that follow.
1. CCC1(C)C(C)=Nc2ccc(-c3nc(Nc4ccc(N5CCN(C)CC5)cn4)ncc3F)cc21 (centres unmarked)
2. CCC1(C)C(C)=Nc2c(F)cc(-c3nc(Nc4ccc(C5CCN(C)CC5)cn4)ncc3F)cc21 (centres unmarked)
3. CC1=Nc2ccc(-c3nc(Nc4ccc(N5CCN(C)CC5)cn4)ncc3F)cc2C12CCCC2
4. CCN1CCC(c2ccc(Nc3ncc(F)c(-c4cc(F)c5c(c4)C4(CCCC4)C(C)=N5)n3)nc2)CC1

A:
21.75
5.94
47.51
283.33

Give CDK1/CDK6 for all compounds that follow.
1. CC1=Nc2c(F)cc(-c3nc(Nc4ccc(C5CCNCC5)cn4)ncc3F)cc2C12CCCC2
2. CC1=Nc2c(F)cc(-c3nc(Nc4ccc(C5CCN(CCO)CC5)cn4)ncc3F)cc2C12CCCC2

A:
1. 838.46
2. 360.37
